Target: Integrin alpha-5/beta-1 (Homo sapiens, UniProt P05556+P08648)
Sequence (P05556 21-798 limits assumed): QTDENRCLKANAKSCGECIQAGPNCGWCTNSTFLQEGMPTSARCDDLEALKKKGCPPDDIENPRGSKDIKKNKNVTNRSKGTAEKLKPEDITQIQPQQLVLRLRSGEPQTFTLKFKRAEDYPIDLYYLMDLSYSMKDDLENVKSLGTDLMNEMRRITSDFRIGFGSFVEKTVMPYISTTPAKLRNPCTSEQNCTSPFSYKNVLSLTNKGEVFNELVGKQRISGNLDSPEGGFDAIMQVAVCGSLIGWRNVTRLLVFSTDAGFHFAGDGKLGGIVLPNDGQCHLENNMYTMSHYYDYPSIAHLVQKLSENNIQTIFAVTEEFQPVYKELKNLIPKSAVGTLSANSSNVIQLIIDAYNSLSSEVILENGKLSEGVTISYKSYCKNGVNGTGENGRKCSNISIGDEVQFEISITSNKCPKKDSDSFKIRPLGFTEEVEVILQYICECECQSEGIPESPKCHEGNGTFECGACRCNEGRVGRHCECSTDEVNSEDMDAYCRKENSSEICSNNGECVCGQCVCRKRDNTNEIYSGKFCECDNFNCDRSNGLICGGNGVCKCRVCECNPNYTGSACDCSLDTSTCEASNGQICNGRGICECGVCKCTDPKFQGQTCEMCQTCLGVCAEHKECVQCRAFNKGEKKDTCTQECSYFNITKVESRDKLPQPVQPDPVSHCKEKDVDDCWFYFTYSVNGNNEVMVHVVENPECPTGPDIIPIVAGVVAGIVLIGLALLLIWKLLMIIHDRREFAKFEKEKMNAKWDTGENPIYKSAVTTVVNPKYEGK
Sequence (P08648 42-894 limits assumed): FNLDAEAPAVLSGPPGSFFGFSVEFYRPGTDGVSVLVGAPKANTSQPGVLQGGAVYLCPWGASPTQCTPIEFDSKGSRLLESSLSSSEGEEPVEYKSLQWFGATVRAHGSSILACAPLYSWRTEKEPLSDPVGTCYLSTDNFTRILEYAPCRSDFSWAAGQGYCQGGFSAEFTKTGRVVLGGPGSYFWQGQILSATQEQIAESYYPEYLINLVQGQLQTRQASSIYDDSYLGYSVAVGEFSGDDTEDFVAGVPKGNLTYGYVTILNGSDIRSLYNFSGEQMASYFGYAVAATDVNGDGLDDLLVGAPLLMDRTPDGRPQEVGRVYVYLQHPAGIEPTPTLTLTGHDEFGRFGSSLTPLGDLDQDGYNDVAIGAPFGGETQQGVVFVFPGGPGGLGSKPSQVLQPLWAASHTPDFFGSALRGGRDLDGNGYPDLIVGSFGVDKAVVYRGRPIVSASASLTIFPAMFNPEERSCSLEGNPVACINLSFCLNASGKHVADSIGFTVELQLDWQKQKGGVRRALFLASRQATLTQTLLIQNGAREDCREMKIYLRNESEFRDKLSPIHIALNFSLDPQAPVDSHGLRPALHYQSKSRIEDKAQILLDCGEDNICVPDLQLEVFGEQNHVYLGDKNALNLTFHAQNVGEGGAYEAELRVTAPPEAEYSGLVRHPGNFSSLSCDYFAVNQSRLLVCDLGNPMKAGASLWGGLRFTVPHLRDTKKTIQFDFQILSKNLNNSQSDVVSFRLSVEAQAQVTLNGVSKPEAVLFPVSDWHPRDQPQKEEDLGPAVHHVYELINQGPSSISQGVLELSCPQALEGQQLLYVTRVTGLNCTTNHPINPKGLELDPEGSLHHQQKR
Sequence (P08648 895-1049 limits assumed): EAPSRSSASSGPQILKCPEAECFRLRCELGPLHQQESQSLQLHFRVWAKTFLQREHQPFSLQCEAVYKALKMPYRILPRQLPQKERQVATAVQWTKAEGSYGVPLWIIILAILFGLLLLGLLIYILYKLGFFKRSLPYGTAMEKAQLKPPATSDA
Assay: Binding affinity to integrin alpha5beta1
Type: protein-complex assay
Recorded Endpoint: IC50 (nM)

Sample records with IC50:
Just so you know, measured IC50 for O=C(N[C@@H](Cc1cccc(OCCCCNc2ccccn2)c1)C(=O)O)c1c(Cl)cccc1Cl came out at 1900

Recorded result, O=C(N[C@@H](Cc1ccc2oc(CCNc3ccccn3)cc2c1)C(=O)O)c1c(Cl)cccc1Cl , IC50: 890

CNc1cccc(CCOc2ccc(C[C@H](NC(=O)c3ccccc3Cl)C(=O)O)cc2)n1 yielded IC50 of 3

In plain terms, CNc1cccc(CCOc2ccc(C[C@H](NC(=O)c3ccc(F)cc3C3CC3)C(=O)O)cc2)n1 has a documented IC50 of 3

Form field IC50, entry CNc1cccc(CCCc2csc(C[C@H](NC(=O)c3c(Cl)cccc3Cl)C(=O)O)c2)n1 : 180

[1] CNc1cccc(CCOc2ccc(C[C@H](NC(=O)c3ccc(F)cc3OC)C(=O)O)cc2)n1
[2] CNc1cccc(CCCc2ccc(C[C@H](NC(=O)c3c(Cl)cccc3Cl)C(=O)O)cc2)n1
Qu. Of 1 and 2 , which carries the smaller reported IC50 figure? Which one? Tell me its label.
Ans. 2
(2: 8 nM, 1: 130 nM)

* * *

Target: Integrin alpha-5/beta-1 (Homo sapiens, UniProt P05556+P08648)
Assay: Antagonist activity at integrin alpha5beta1 in human K562 cells assessed as inhibition of cell adhesion
Type: functional, cell-based
pIC50: −log10 of the molar value.
Recorded Endpoint: pIC50

Form: compound = CNc1cccc(CCOc2ccc(C[C@H](NC(=O)c3ccc(F)cc3C)C(=O)O)cc2)n1 ; pIC50 = 7.44

[I] CNc1cccc(CCOc2ccc(C[C@H](NC(=O)c3ccc(F)cc3C3CC3)C(=O)O)cc2)n1
[II] CNc1cccc(CCOc2c(C)cc(C[C@H](NC(=O)c3c(Cl)cccc3Cl)C(=O)O)cc2C)n1
Qu. // compare measured pIC50 between I and II ; output the lower one Give the label under which the chosen entry appears.
Ans. II
(II: 6.21, I: 7.41)

[1] CNc1cccc(CCOc2ccc(C[C@H](NC(=O)c3sccc3Cl)C(=O)O)cc2)n1
[2] CNc1cccc(CCCc2csc(C[C@H](NC(=O)c3c(Cl)cccc3Cl)C(=O)O)c2)n1
[3] CCc1cc(F)ccc1C(=O)N[C@@H](Cc1ccc(OCCc2cccc(NC)n2)cc1)C(=O)O
[4] O=C(N[C@@H](Cc1cccc(OCCCCNc2ccccn2)c1)C(=O)O)c1c(Cl)cccc1Cl
Qu. Reorder the items by pIC50, least to greatest. Response field: labels, in requested order.
Ans. 4, 2, 1, 3
(4: 4.08, 2: 6.40, 1: 7.28, 3: 7.62)

[A] CNc1cccc(CCOc2ccc(C[C@H](NC(=O)C3(C)CCCCC3)C(=O)O)cc2)n1
[B] CNc1cccc(CCOc2ccc(C[C@H](NC(=O)c3ccc(F)cc3OC)C(=O)O)cc2)n1
Qu. Please state the entry with greater pIC50 among A and B . Please identify the chosen entry by its label.
Ans. A
(A: 7.41, B: 6.09)

* * *

Target: Integrin alpha-5/beta-1 (Homo sapiens, UniProt P05556+P08648)
Assay: Antagonist activity at integrin alpha5beta1 in human K562 cells assessed as inhibition of cell adhesion
Type: functional, cell-based
Recorded Endpoint: IC50 (nM)

These solved cases illustrate the format of a correct answer.
What the record says about O=C(N[C@@H](Cc1cccc(OCCCNc2ccccn2)c1)C(=O)O)c1c(Cl)cccc1Cl : IC50 is 20000

Consider COc1ccc([C@H](CC(=O)O)N2CCN(CCCc3ccc4c(n3)NCCC4)C2=O)cn1 . Its measured IC50 is 4600

Record O=C(N[C@@H](Cc1ccc(OCCNc2ccccn2)cc1)C(=O)O)c1c(Cl)cccc1Cl , field IC50: 2500

For record CNc1cccc(CCCc2ccc(C[C@H](NC(=O)c3c(Cl)cccc3Cl)C(=O)O)nc2)n1 the listed IC50 is 110

IC50 reading for CNc1cccc(CCCc2ccc(C[C@H](NC(=O)c3c(Cl)cccc3Cl)C(=O)O)cn2)n1 : 76

Quick note, IC50 for CNc1cccc(CCOc2ccc(C[C@H](NC(=O)c3c(Cl)cccc3Cl)C(=O)O)cc2F)n1 landed at 47

The reported value for O=C(N[C@@H](Cc1ccc2oc(CCNc3ccccn3)cc2c1)C(=O)O)c1c(Cl)cccc1Cl in terms of IC50 is 4000

[1] CNc1cccc(CCOc2csc(C[C@H](NC(=O)c3c(Cl)cccc3Cl)C(=O)O)c2)n1
[2] CNc1cccc(CCCc2ccc(C[C@H](NC(=O)c3c(Cl)cccc3Cl)C(=O)O)cc2)n1
Qu. Just curious, which one has the larger IC50 reading, 1 or 2 ? Write the label of whichever entry you select.
Ans. 1
(1: 510 nM, 2: 46 nM)

* * *

Molecular target: Fibronectin receptor (Integrin alpha-5/beta-1 and alpha-V/beta-3) (Homo sapiens, UniProt P05106+P05556+P06756+P08648)
Assay: Antagonist activity at integrin alphavbeta3alpha5beta1 in human A375M cells assessed as inhibition of cell adhesion to fibronectin in presence of Mg2+
Recorded Endpoint: IC50 (nM)

# IC50 (compound: CNc1cccc(CCOc2ccc(C[C@H](NC(=O)c3ccc(F)cc3OC)C(=O)O)cc2)n1 ) is 8300

[a] CNc1cccc(CCOc2ccc(C[C@H](NC(=O)c3c(F)cccc3Cl)C(=O)O)cc2)n1
[b] CNc1cccc(CCOc2ccc(C[C@H](NC(=O)C3CCCCC3C)C(=O)O)cc2)n1 (stereo partly drawn)
Qu. Higher IC50: a or b ? Reply with the label of the item you choose.
Ans. b

* * *

Organism: Rattus norvegicus
Assay: Free drug level in rat
Format: ADME, organism-based
Settings: in vivo
Recorded Endpoint: Drug uptake(free) (%)

Sample CNc1cccc(CCOc2ccc(C[C@H](NC(=O)c3c(C)cc(C)cc3C)C(=O)O)cc2)n1 ; Drug uptake(free) observed: 0.5

For record CCc1cc(F)ccc1C(=O)N[C@@H](Cc1ccc(OCCc2cccc(NC)n2)cc1)C(=O)O the listed Drug uptake(free) is 0.4

Drug uptake(free) reading for CNc1cccc(CCOc2ccc(C[C@H](NC(=O)c3ccc(F)cc3C)C(=O)O)cc2)n1 : 0.5

* * *

Target: Integrin alpha-5/beta-1 (Homo sapiens, UniProt P05556+P08648)
Test: Antagonist activity at integrin alpha5beta1 in human A375M cells assessed as inhibition of cell adhesion in presence of Mg2+ and MK-0429
Type: functional, cell-based
pIC50: −log10 of the molar value.
Recorded Endpoint: pIC50

Value of measured pIC50 for the entry COc1ccc([C@H](CC(=O)O)N2CCN(CCCc3ccc4c(n3)NCCC4)C2=O)cn1 : 5.66

The reported pIC50 of the compound CNc1cccc(CCOc2ccc(C[C@H](NC(=O)c3c(Cl)cccc3Cl)C(=O)O)nc2)n1 was 7.08

The recorded pIC50 for entry CNc1cccc(CCOc2ccc(C[C@H](NC(=O)c3c(Cl)cncc3Cl)C(=O)O)cc2)n1 equals 7.28

For reference, reported pIC50 for CNc1cccc(CCOc2ccc(C[C@H](NC(=O)c3c(F)cccc3Cl)C(=O)O)cc2)n1 stands at 6.80

For this compound ( CNc1cccc(CCOc2ccc(C[C@H](NC(=O)C3(C)CCCCC3)C(=O)O)cc2)n1 ), measured pIC50 is 6.32

For record CNc1cccc(CCOc2ccc(C[C@H](NC(=O)c3ccc(F)cc3OC)C(=O)O)cc2)n1 the listed pIC50 is 5.19

[I] CNc1cccc(CCOc2ccc(C[C@H](NC(=O)c3c(Cl)cccc3Cl)C(=O)O)cc2)n1
[II] CNc1cccc(CCOc2ccc(C[C@H](NC(=O)c3ccc(F)cc3Cl)C(=O)O)cc2)n1
[III] CNc1cccc(CCOc2ccc(C[C@H](NC(=O)C3CCCCC3C)C(=O)O)cc2)n1 (stereo partly drawn)
[IV] CNc1cccc(CCOc2ccc(C[C@H](NC(=O)c3c(C)cc(C)cc3C)C(=O)O)cc2)n1
Qu. Please list the entries, largest pIC50 first. Write the labels out in the order the request specifies.
Ans. IV, I, II, III
(IV: 7.24, I: 7.01, II: 6.68, III: 6.38)

[1] CCc1cc(F)ccc1C(=O)N[C@@H](Cc1ccc(OCCc2cccc(NC)n2)cc1)C(=O)O
[2] CNc1cccc(CCOc2ccc(C[C@H](NC(=O)c3c(Cl)cccc3Cl)C(=O)O)cn2)n1
Qu. Please compare: 1 and 2 . Report which one has the smaller pIC50 value. Kindly state the label of the option you pick.
Ans. 2
(2: 6.24, 1: 6.70)

[a] CNc1cccc(CCCc2ccc(C[C@H](NC(=O)c3c(Cl)cccc3Cl)C(=O)O)s2)n1
[b] CNc1cccc(CCOc2ccc(C[C@H](NC(=O)c3ccccc3)C(=O)O)cc2)n1
Qu. Of a versus b , which is the one with smaller reported pIC50? Return value: the label identifying the chosen record.
Ans. b
(b: 5.27, a: 6.74)

[I] CNc1cccc(CCOc2ccc(C[C@H](NC(=O)c3c(Cl)cccc3Cl)C(=O)O)cc2F)n1
[II] O=C(N[C@@H](Cc1ccc(OCCCNc2ccccn2)cc1)C(=O)O)c1c(Cl)cccc1Cl
[III] CNc1cccc(CCOc2ccc(C[C@H](NC(=O)c3ccc(F)cc3C3CC3)C(=O)O)cc2)n1
[IV] CNc1cccc(CCOc2ccc(C[C@H](NC(=O)c3sccc3Cl)C(=O)O)cc2)n1
Qu. Ranking field: pIC50; order: falling. Answer by naming the labels in the order asked.
Ans. I, III, II, IV
